Each entry below lists one item and its recorded pKd value.
target_or_test_system: T1, human α-CGRP 1-37 (WT) (human, C-terminal amide; N-terminal biotin when captured on the SA chip; 125I-labelled in the radioligand assay)
T1 construct: also called α-human
T1 peptide: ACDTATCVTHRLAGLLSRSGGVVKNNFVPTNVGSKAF
experiment: Biacore, 37°C, Fab over CGRP on SA chip
# pKd is unitless: minus log10 of the molar concentration; print number only

binder: G1 variant M23 Fab (Fab, V domains shown, Fab; constant domains as m1) VH: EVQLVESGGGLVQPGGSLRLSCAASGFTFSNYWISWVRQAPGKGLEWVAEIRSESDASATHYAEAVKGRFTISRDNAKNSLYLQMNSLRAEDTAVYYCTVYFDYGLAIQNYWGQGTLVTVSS VL: EIVLTQSPATLSLSPGERATLSCKASKGVTTYVSWYQQKPGQAPRLLIYGASNRYLGIPARFSGSGSGTDFTLTISSLEPEDFAVYYCSQSYNYPYTFGQGTKLEIK
pKd: 9.09

binder: G1 variant M38 Fab (Fab, V domains shown, Fab; constant domains as m1) VH: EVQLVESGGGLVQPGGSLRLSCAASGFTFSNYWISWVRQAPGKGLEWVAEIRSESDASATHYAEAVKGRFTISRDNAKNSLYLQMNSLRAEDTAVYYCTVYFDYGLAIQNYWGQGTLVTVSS VL: EIVLTQSPATLSLSPGERATLSCKASKNVWTYVSWYQQKPGQAPRLLIYGASNRYLGIPARFSGSGSGTDFTLTISSLEPEDFAVYYCSQSYNYPYTFGQGTKLEIK
pKd: 8.87

binder: G1 variant M32 Fab (Fab, V domains shown, Fab; constant domains as m1) VH: EVQLVESGGGLVQPGGSLRLSCAASGFTFSNYWISWVRQAPGKGLEWVAEIRSKSDHSATHYAEAVKGRFTISRDNAKNSLYLQMNSLRAEDTAVYYCTVYFDYGLAIQNYWGQGTLVTVSS VL: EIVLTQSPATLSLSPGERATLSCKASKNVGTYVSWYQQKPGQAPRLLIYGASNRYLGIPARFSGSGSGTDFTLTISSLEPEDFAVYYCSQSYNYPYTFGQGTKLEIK
pKd: 8.77

binder: G1 variant M33 Fab (Fab, V domains shown, Fab; constant domains as m1) VH: EVQLVESGGGLVQPGGSLRLSCAASGFTFSNYWISWVRQAPGKGLEWVAEIRSKSDNGATHYAEAVKGRFTISRDNAKNSLYLQMNSLRAEDTAVYYCTVYFDYGLAIQNYWGQGTLVTVSS VL: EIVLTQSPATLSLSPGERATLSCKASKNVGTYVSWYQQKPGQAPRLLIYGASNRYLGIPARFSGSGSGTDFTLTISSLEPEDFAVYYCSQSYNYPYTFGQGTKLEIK
pKd: 8.33

binder: G1 variant M8 Fab (Fab, V domains shown, Fab; constant domains as m1) VH: EVQLVESGGGLVQPGGSLRLSCAASGFTFSNYWISWVRQAPGKGLEWVAEIRSESDASATHYAEAVKGRFTISRDNAKNSLYLQMNSLRAEDTAVYYCNGYFDYGLAIQNYWGQGTLVTVSS VL: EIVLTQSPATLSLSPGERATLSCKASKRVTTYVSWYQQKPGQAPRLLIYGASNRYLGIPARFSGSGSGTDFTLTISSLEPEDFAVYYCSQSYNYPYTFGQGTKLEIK
pKd: 9.24

binder: G1 variant M45 Fab (Fab, V domains shown, Fab; constant domains as m1) VH: EVQLVESGGGLVQPGGSLRLSCAASGFTFSNYWISWVRQAPGKGLEWVAEIRSKSDNEATHYADAVKGRFTISRDNAKNSLYLQMNSLRAEDTAVYYCTVYFDYGLAIQNYWGQGTLVTVSS VL: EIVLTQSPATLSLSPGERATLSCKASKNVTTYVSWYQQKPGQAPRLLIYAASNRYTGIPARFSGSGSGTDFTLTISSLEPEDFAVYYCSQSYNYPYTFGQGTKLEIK
pKd: 8.73

Query string: GET /values?readout=pKd&item= G1 variant M21 Fab (Fab, V domains shown, Fab; constant domains as m1) VH: EVQLVESGGGLVQPGGSLRLSCAASGFTFSNYWISWVRQAPGKGLEWVAEIRSESDASATHYAEAVKGRFTISRDNAKNSLYLQMNSLRAEDTAVYYCSAYFDYGLAIQNYWGQGTLVTVSS VL: EIVLTQSPATLSLSPGERATLSCKASKWVTTYVSWYQQKPGQAPRLLIYGASNRYLGIPARFSGSGSGTDFTLTISSLEPEDFAVYYCSQSYNYPYTFGQGTKLEIK
Result string: 8.91

Measured values drawn from patent US20190071490A1 for this set.
